system: HCT-116 cells; assay: MTT antiproliferative assay, HCT-116 cells; assay type: cell-based, human; conditions: Homo sapiens, HCT-116, 48 h, exposure for 48 h
measureName: IC50 (µM)

Example results:
1. COc1cc(N(Cc2nc(C)c3ccccc3n2)S(=O)(=O)c2ccc(Br)cc2)cc(OC)c1OC [Compound 10c] | 1.49
2. COc1ccc(S(=O)(=O)N(Cc2c(C)noc2C)c2cc(OC)c(OC)c(OC)c2)cc1 | 12.1
3. COc1ccc(S(=O)(=O)N(Cc2ccc(OC)c(OC)c2)c2cc(OC)c(OC)c(OC)c2)cc1 | 8.6
4. COc1cc(N(Cc2nc(C)c3ccccc3n2)C(=O)c2cccs2)cc(OC)c1OC [Compound 11j] | 24.8
5. COc1cc(N(Cc2nc(C)c3ccccc3n2)C(=O)c2ccccc2)cc(OC)c1OC [Compound 11a] | 19.8
6. COc1cc(N(Cc2nc(C)c3ccccc3n2)S(=O)(=O)c2ccccc2Cl)cc(OC)c1OC [Compound 10d] | 18.7
7. COc1cc(N(Cc2nc(C)c3ccccc3n2)C(=O)c2ccc(F)cc2)cc(OC)c1OC [Compound 11b] | 18.9
8. COc1ccc(S(=O)(=O)N(Cc2ccc(Cl)cc2)c2cc(OC)c(OC)c(OC)c2)cc1 | 23

I. COc1ccc(S(=O)(=O)N(Cc2cccnc2)c2cc(OC)c(OC)c(OC)c2)cc1
II. COc1cc(N(Cc2nc(C)c3ccccc3n2)S(=O)(=O)c2cccs2)cc(OC)c1OC [Compound 10i]
(Q) Which entry shows the lesser value of IC50 here, I or II ? Response format: the label of the selected entry.
(A) I

----------
Each item that follows carries a reported IC50.
tested on: MCF-7 cells; assay: MTT antiproliferative assay, MCF-7 cells; assay type: cell-based, human; conditions: Homo sapiens, MCF7, 48 h, exposure for 48 h

Example results:
1. COc1cc(N(Cc2nc(C)c3ccccc3n2)S(=O)(=O)c2ccc(C(C)(C)C)cc2)cc(OC)c1OC [Compound 10g] | 28.1 µM
2. COc1ccc(CN(c2cc(OC)c(OC)c(OC)c2)S(=O)(=O)c2ccccc2)cc1 | > 40 µM
3. COc1cc(N(Cc2nc(C)c3ccccc3n2)C(=O)c2ccccc2Cl)cc(OC)c1OC [Compound 11d] | > 40 µM
4. COc1cc(N(Cc2nc(C)c3ccccc3n2)C(=O)c2ccc(F)cc2)cc(OC)c1OC [Compound 11b] | 29.7 µM

(Q) Recorded IC50 for COc1cc(N(Cc2nc(C)c3ccccc3n2)S(=O)(=O)c2ccc(C)cc2)cc(OC)c1OC [Compound 10e] , please?
(A) 1.68 µM

----------
Tested on: HCT-116 cells
Test: MTT antiproliferative assay, HCT-116 cells
Assay type: cell-based, human
Conditions: Homo sapiens, HCT-116, 48 h, exposure for 48 h
Protocol: The in vitro antiproliferative activities of new target compounds 6a–6g, 9a–9i, 10a–10j, 11a–11j, and 14a–14d were evaluated against four human cancer cell lines (MGC-803, PC-3, HCT-116, and MCF-7) using MTT assay and 5-FU as a positive drug. […] Cell lines were seeded into 96-well plates and incubated for 24 h. […] Absorbencies of formazan solution were measured at 490 nm. The IC50 values of tested compounds were calculated by SPSS version 17.0.
measureName: IC50 (µM)

1) COc1cc(N(Cc2nc(C)c3ccccc3n2)C(=O)c2c(C)cc(C)cc2C)cc(OC)c1OC [Compound 11f] | 28.5
2) COc1cc(N(Cc2nc(C)c3ccccc3n2)S(=O)(=O)c2ccccn2)cc(OC)c1OC [Compound 10j] | 24.8
3) COc1cc(N(Cc2nc(C)c3ccccc3n2)C(=O)c2ccc(Br)cc2)cc(OC)c1OC [Compound 11c] | 20.4
4) COc1ccc(S(=O)(=O)N(Cc2nc(C)c3ccccc3n2)c2cc(OC)c(OC)c(OC)c2)cc1 | 0.708

1. COc1ccc(S(=O)(=O)N(Cc2nc(C)c3ccccc3n2)c2cc(OC)c(OC)c(OC)c2)cc1OC [Compound 10h]
2. COc1ccc(CN(c2cc(OC)c(OC)c(OC)c2)S(=O)(=O)c2cccs2)cc1
(Q) Out of 1 and 2 , name the one with the higher IC50. Response format: the label of the selected entry.
(A) 2
(2: 38.1 µM, 1: 22.9 µM)
